test: JC-1 mitochondrial signal, unstimulated HepG2 cells – cell-based, JC-1 fluorescence, 24 h, 100 nL compound, profiling panel (AID 1167); conditions: HepG2 mitochondrial potential, higher = more signal; note: test concentration not given here
Label y for high-side z-score (at or above 0.4) and n for low-side z-score (below it).

Query: Quick check, z-score >= 0.4? [N-]=[N+]=NCc1ccccc1[C@H]1OC(c2ccc(OCCCO)cc2)=N[C@@]1(Cc1ccccc1N=[N+]=[N-])C(=O)NCC(O)CO (some centres undefined)
Result: n

Query: Quick check, z-score >= 0.4? `NCCCCCCNC(=O)[C@@H]1C[C@@H]2C(=O)N[C@@H](CCCCN)C(=O)N2[C@@H]1c1ccc(O)cc1`
Result: n

Query: Quick check, z-score >= 0.4? `COCCOC(=O)N1C(=O)[C@@]2(c3cc(C#CC4(O)CCCCCC4)ccc31)[C@H](C(=O)N1CCc3cc(OC)c(OC)cc3C1)[C@H]1C(=O)O[C@H](c3ccccc3)[C@H](c3ccccc3)N1[C@@H]2c1ccc(OCCO)cc1`
Result: n

Query: Quick check, z-score >= 0.4? `CC(=O)NCCCC[C@@H]1NC(=O)[C@@H]2C[C@H](C(=O)NCCCCCN)[C@H](c3ccc(O)cc3)N2C1=O`
Result: y

Query: Quick check, z-score >= 0.4? `COC(=O)C/C=C/C[C@]1(O)C(=O)N(C)c2ccccc21`
Result: y

Query: Quick check, z-score >= 0.4? `Cc1ccc(S[C@]2(C(=O)NC(C)C)CC(=O)N(Cc3cc(C(F)(F)F)cc(C(F)(F)F)c3)[C@@H]2c2ccc(CO)cc2)cc1`
Result: n

Query: Quick check, z-score >= 0.4? CS(=O)(=O)CCOC(=O)C1=CC(c2ccc(CO)cc2)=CC(C2CC2)N(Cc2sc3ccccc3c2Cl)C=C1C(=O)OCCS(C)(=O)=O (centres undefined)
Result: y

Query: Quick check, z-score >= 0.4? `[N-]=[N+]=Nc1ccccc1C[C@]1(C(=O)NCCN2CCOCC2)COC(c2ccc(OCCCO)cc2)=N1`
Result: n

Query: Quick check, z-score >= 0.4? `[N-]=[N+]=Nc1ccccc1C[C@@]1(C(=O)N2CCOCC2)N=C(c2ccc(OCCCO)cc2)O[C@@H]1c1ccccc1`
Result: y
